%-inhibition, ABL(T315I): recorded values
Target: panel of more than 300 wild-type and mutant kinases (313 kinase panel) (Homo sapiens, UniProt P00519, T315I)
Assay: Kinase profiling in a biochemical assay panel (mobility shift assays and ELISA), %-inhibition at 1 μM; selectivity entropy
Conditions: kinase ABL(T315I); 1 μM compound
MEASUREMENT KIND: %-inhibition, ABL(T315I) (%)

INSERT INTO results (molecule, quantity_unit, test_value) VALUES
  ('O=S(=O)(c1cccc2cnccc12)N1CCCNCC1 [fasudil]', '%', 1.7),
  ('CNC(=O)c1cc(Oc2ccc(NC(=O)Nc3ccc(Cl)c(C(F)(F)F)c3)c(F)c2)ccn1 [regorafenib]', '%', 66),
  ('CS(=O)(=O)CCNCc1ccc(-c2ccc3ncnc(Nc4ccc(OCc5cccc(F)c5)c(Cl)c4)c3c2)o1 [lapatinib]', '%', 9),
  ('CCCS(=O)(=O)Nc1ccc(F)c(C(=O)c2c[nH]c3ncc(-c4ccc(Cl)cc4)cc23)c1F [vemurafenib]', '%', 7);

----------
Molecular target: panel of more than 300 wild-type and mutant kinases (313 kinase panel) (Homo sapiens, UniProt Q9NYA1)
Test: Kinase profiling in a biochemical assay panel (mobility shift assays and ELISA), %-inhibition at 1 μM; selectivity entropy
Details: kinase SPHK1; 1 μM
MEASUREMENT KIND: %-inhibition of SPHK1 (%)

INSERT INTO assay_data (molecule, measurement_kind, test_value) VALUES
  ('CC(=O)Nc1cccc(-n2c(=O)n(C3CC3)c(=O)c3c(Nc4ccc(I)cc4F)n(C)c(=O)c(C)c32)c1', '%-inhibition of SPHK1', -11),
  ('CNC(=O)c1cc(Oc2ccc(NC(=O)Nc3ccc(Cl)c(C(F)(F)F)c3)c(F)c2)ccn1', '%-inhibition of SPHK1', -14),
  ('CO[C@H]1C[C@@H]2CC[C@@H](C)[C@@](O)(O2)C(=O)C(=O)N2CCCC[C@H]2C(=O)O[C@H]([C@H](C)C[C@@H]2CC[C@@H](OC(=O)C(C)(CO)CO)[C@H](OC)C2)CC(=O)[C@H](C)/C=C(\C)[C@@H](O)[C@@H](OC)C(=O)[C@H](C)C[C@H](C)/C=C/C=C/C=C/1C', '%-inhibition of SPHK1', -14),
  ('C[C@@H](Oc1cc(-c2cnn(C3CCNCC3)c2)cnc1N)c1c(Cl)ccc(F)c1Cl', '%-inhibition of SPHK1', -14),
  ('COc1cc2nccc(Oc3ccc(NC(=O)C4(C(=O)Nc5ccc(F)cc5)CC4)cc3)c2cc1OC [cabozantinib]', '%-inhibition of SPHK1', -12),
  ('COc1cc(Nc2c(C#N)cnc3cc(OCCCN4CCN(C)CC4)c(OC)cc23)c(Cl)cc1Cl', '%-inhibition of SPHK1', -23),
  ('O=S(=O)(c1cccc2cnccc12)N1CCCNCC1', '%-inhibition of SPHK1', -15),
  ('Cc1ccc(C(=O)Nc2ccc(CN3CCN(C)CC3)c(C(F)(F)F)c2)cc1C#Cc1cnc2cccnn12', '%-inhibition of SPHK1', -20),
  ('CCCS(=O)(=O)Nc1ccc(F)c(C(=O)c2c[nH]c3ncc(-c4ccc(Cl)cc4)cc23)c1F', '%-inhibition of SPHK1', -11),
  ('CN(C)C/C=C/C(=O)Nc1cc2c(Nc3ccc(F)c(Cl)c3)ncnc2cc1O[C@H]1CCOC1', '%-inhibition of SPHK1', -2),
  ('Cc1ccc(Nc2nccc(N(C)c3ccc4c(C)n(C)nc4c3)n2)cc1S(N)(=O)=O', '%-inhibition of SPHK1', 1.19),
  ('N#CC[C@H](C1CCCC1)n1cc(-c2ncnc3[nH]ccc23)cn1', '%-inhibition of SPHK1', -15),
  ('CO[C@H]1C[C@@H]2CC[C@@H](C)[C@@](O)(O2)C(=O)C(=O)N2CCCC[C@H]2C(=O)O[C@H]([C@H](C)C[C@@H]2CC[C@@H](OCCO)[C@H](OC)C2)CC(=O)[C@H](C)/C=C(\C)[C@@H](O)[C@@H](OC)C(=O)[C@H](C)C[C@H](C)/C=C/C=C/C=C/1C', '%-inhibition of SPHK1', -16),
  ('CC(C)(C)c1nc(-c2cccc(NS(=O)(=O)c3c(F)cccc3F)c2F)c(-c2ccnc(N)n2)s1', '%-inhibition of SPHK1', -18);

Reference source for all entries: paper PMC3961306
